# TARGET UNDER TEST: Feline_OSMR_hlgG1_Fc (feline)
# Sequence (chain, as listed by the source limits assumed, form in doubt): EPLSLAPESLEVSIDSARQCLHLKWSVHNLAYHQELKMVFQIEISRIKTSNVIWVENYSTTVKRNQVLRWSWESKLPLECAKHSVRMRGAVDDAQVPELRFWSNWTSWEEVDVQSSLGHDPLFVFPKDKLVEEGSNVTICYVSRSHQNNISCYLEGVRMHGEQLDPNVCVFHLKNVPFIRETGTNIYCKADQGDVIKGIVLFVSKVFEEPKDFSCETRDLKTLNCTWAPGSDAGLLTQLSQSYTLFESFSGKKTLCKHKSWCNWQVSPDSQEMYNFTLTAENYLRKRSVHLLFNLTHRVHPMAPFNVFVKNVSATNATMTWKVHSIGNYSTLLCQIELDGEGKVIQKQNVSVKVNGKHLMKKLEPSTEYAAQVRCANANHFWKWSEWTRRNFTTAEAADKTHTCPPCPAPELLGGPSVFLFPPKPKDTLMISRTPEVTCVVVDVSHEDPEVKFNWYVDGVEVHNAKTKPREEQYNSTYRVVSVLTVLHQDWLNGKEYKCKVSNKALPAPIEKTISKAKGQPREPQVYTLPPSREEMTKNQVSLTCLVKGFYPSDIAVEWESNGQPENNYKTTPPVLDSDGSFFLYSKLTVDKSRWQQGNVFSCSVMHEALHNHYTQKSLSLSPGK
# TEST NAME: SPR Biacore
REPORTED ENDPOINT: Kd (nM)
# output: bare number, implied unit nM

BINDER	VALUE UNITS	Kd
Mu_09E09_VH (SEQ ID NO: 35)_T102A (antibody, V domains shown) VH: DVKLVESGEGLVKPGGSLKLSCAASGFTFSSYAMSWVRQTPEKRLEWVAYISSGGDYIYYADTVKGRFTISRDNARNTLYLQMSSLKSEDTAMYYCTRDPIAGTFAYWGQGTLVTVSA VL: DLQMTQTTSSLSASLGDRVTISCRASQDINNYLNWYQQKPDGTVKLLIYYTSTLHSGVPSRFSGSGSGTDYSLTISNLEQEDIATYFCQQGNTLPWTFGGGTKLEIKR	nM	1.94
Mu_09E09_VH (SEQ ID NO: 35)_S35A (antibody, V domains shown) VH: DVKLVESGEGLVKPGGSLKLSCAASGFTFSSYAMAWVRQTPEKRLEWVAYISSGGDYIYYADTVKGRFTISRDNARNTLYLQMSSLKSEDTAMYYCTRDPITGTFAYWGQGTLVTVSA VL: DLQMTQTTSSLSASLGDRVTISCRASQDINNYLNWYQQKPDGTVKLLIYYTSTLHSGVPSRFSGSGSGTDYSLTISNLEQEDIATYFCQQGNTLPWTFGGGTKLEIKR	nM	1.37
Mu_09E09_VL (SEQ ID NO: 37)_G91A (antibody, V domains shown) VH: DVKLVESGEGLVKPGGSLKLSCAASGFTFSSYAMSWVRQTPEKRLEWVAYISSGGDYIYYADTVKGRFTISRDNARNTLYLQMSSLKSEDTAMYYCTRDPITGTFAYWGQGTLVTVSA VL: DLQMTQTTSSLSASLGDRVTISCRASQDINNYLNWYQQKPDGTVKLLIYYTSTLHSGVPSRFSGSGSGTDYSLTISNLEQEDIATYFCQQANTLPWTFGGGTKLEIKR	nM	2.21

For the next question, use this binder.
QUERY: Read the entry Mu_09E09_VH (SEQ ID NO: 35)_F105A (antibody, V domains shown) VH: DVKLVESGEGLVKPGGSLKLSCAASGFTFSSYAMSWVRQTPEKRLEWVAYISSGGDYIYYADTVKGRFTISRDNARNTLYLQMSSLKSEDTAMYYCTRDPITGTAAYWGQGTLVTVSA VL: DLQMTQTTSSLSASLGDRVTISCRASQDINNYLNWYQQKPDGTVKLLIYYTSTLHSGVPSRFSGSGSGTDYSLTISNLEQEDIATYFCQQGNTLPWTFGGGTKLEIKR and write its reported Kd.
RESULT: 2.4
